Tested on: NCI-H23 lung
method: NCI-60 one-dose screen, 48 h (100 = growth as untreated, 0 = no growth, -100 = all killed)
run_conditions: 10 µM unless noted
The panel holds about 83,000 compounds, 20% with a hit somewhere; the sample as a whole holds those more often.
Here, each record is paired with measured growth data.
Dear colleague, please return just the value in %, with no unit written.

O=c1oc2ccc(Cl)cc2c(=O)n1-c1ccc(Cl)cc1F
-4.79
CCOc1cccc(/C=N\Nc2nc(=O)cc(C(=O)OC)s2)c1O
85.7
Nc1nc2c(ncn2[C@@H]2O[C@H](CS)[C@@H](O)[C@H]2O)c(=O)[nH]1
102

Next item in the queue.
[in] Please look at CC[C@]1(O)C[C@@H]2CN(CCc3c([nH]c4ccccc34)[C@@](C(=O)OC)(c3cc4c(cc3OC)N(C)[C@H]3[C@@](O)(C(=O)OC)[C@H](OC(C)=O)[C@]5(CC)C=CCN6CC[C@]43[C@@H]65)C2)C1 and tell me its recorded growth on NCI-H23 lung.
[out] 26.8

====

Tested on: SK-MEL-28 melanoma
method: NCI-60 one-dose screen, 48 h (100 = growth as untreated, 0 = no growth, -100 = all killed)
run_conditions: 10 µM
The panel holds about 83,000 compounds, 20% with a hit somewhere; the sample as a whole holds those more often.
assay_metric: growth (%)
Dear colleague, please return just the value in %, with no unit written.

Examples with answers:
CCOC(=O)c1ccc(N=Cc2sc(=O)[nH]c2O)cc1
105
Cc1ccc(S(=O)c2ccc([N+](=O)[O-])c3nonc23)cc1 (stereo not given)
105
CCCCCCCCCCCCCCn1cc(C2=C(c3coc4ccc(OC)cc34)C(=O)NC2=O)c2ccccc21
101
Clc1ncccc1Nc1ccc2nnc(-c3ccncc3)n2n1
112
CCCCC1COc2cccc3c2N1C=C/C3=C\C(=O)N(C)c1ccccc1 (stereo not given)
75
CCC(C)(C)C(=O)O[C@H]1C[C@@H](C)C=C2C=C[C@H](C)[C@H](CC[C@@H]3CC=CC(=O)O3)[C@H]21
79.2

[in] Recall and state the measured growth for COc1ccc(C2=NN(/C=C3\SC(=O)NC3=Nc3ccc(F)cc3)C(c3ccc(F)cc3)C2)cc1 (stereo not given) .
[out] 103

[in] Recall and state the measured growth for O=c1oc2ccc(Br)cc2c(=O)n1-c1ccc(I)cc1F .
[out] -2

[in] Recall and state the measured growth for CCOC(=O)C1(C(=O)OCC)N=C(c2ccccc2)C=C1c1ccccc1 .
[out] 105

[in] Recall and state the measured growth for CCn1c(SCC(=O)Nc2cc(C(F)(F)F)ccc2Cl)nc2ccccc2c1=O .
[out] -28.6

====

System: ACHN renal
method: NCI-60 one-dose screen, 48 h (100 = growth as untreated, 0 = no growth, -100 = all killed)
run_conditions: 10 µM unless noted
The panel holds about 83,000 compounds, 20% with a hit somewhere; the sample as a whole holds those more often.
Consider the following partition of reported growth into named classes: LOW: < 30%; MID: ≥ 30% and < 80%; HIGH: ≥ 80%

CC(=O)SC1CC(=O)C=C2CCC3C4CCC(=O)OC4(C)CCC3C21C (stereo unspecified)
HIGH
O=[N+]([O-])c1cc2c(ccc3occc32)o1
LOW
COc1cc(C2C(C#N)=C(N)OC3=C2C(=O)c2ccccc2C3=O)cc(OC)c1OC (stereo unspecified)
MID

[in] In plain terms, what class is CN1CCN(c2nc(Nc3ccc(O)cc3)nc3ccccc23)CC1 ?
[out] MID

[in] In plain terms, what class is O=C1C(=O)c2c(ccc3ccccc23)-c2ccccc21 ?
[out] LOW

[in] In plain terms, what class is Cc1sc2ncnc(Sc3nc4ccccc4[nH]3)c2c1C ?
[out] LOW

[in] In plain terms, what class is Cc1ccc(F)cc1NC(=O)c1cc(Cl)ccc1Nc1ccccc1 ?
[out] MID

[in] In plain terms, what class is Nc1nc(Nc2cccc(F)c2)nc2ccccc12 ?
[out] MID

====

System: SF-268 CNS
method: NCI-60 one-dose screen, 48 h (100 = growth as untreated, 0 = no growth, -100 = all killed)
run_conditions: 10 µM unless noted
Description: Cells are grown in 96 well plates and exposed to the test compound for 48 hours. Compounds are tested at a single concentration, which is 10^-5 M for most compounds. The reported endpoint is percent growth (GI% or GIPRCNT), where numbers from 0 - 100% represent growth inhibition, and numbers from -100% - 0 represent cell death. For example, a value of 40 represents 60% growth inhibition. A value of 0 means no net growth occurred over the course of the experiment. […]
The panel holds about 83,000 compounds, 20% with a hit somewhere; the sample as a whole holds those more often. The source made the active and inactive calls. Rule for the calls: active = growth percent below 10; inactive = the rest.
Here, each record is paired with measured growth data.

Examples with answers:
Cc1ccc2cc3c(N)c4c(C)ccc(C)c4nc3nc2c1
17.4% (inactive)
O=C1C(=O)c2c(ccc3ccccc23)-c2ccccc21
1.97% (active)
CN1C(=O)N(C)C2C1NN=c1s/c(=C\c3c[nH]c4ccccc34)c(=O)n12 (stereo unspecified)
39.1% (inactive)
Cc1nc(Nc2ccccn2)sc1C(=O)/C=C/c1ccc(Cl)cc1
19.9% (inactive)
O=c1c2cc(F)ccc2sc2c(NCCN3CCCC3)nc3ccccc3c12
47% (inactive)
COc1ccc(/C=C/C(=O)c2c(C)nc3ccccc3c2/C=C/c2ccccc2)c(OC)c1
80.7% (inactive)
O=C(Nc1ccc(F)cc1F)c1cc(Cl)ccc1O
15% (inactive)
N#C/C(=C1\SC(=O)CN1c1ccccc1)c1nc2ccccc2s1
103% (inactive)
CC1=NCC2NC(=O)NC(C)=C12 (stereo unspecified)
96.1% (inactive)
COc1cc(-c2c3c(c(Br)n2Cc2ccccc2)-c2nc(N)sc2CC3)cc(OC)c1OC
88.2% (inactive)

[in] Recall and state the measured growth for O=c1oc2ccc(Cl)cc2c(=O)n1-c1ccc(Cl)cc1F .
[out] 7.63% (active)

====

System: SK-MEL-2 melanoma
method: NCI-60 one-dose screen, 48 h (100 = growth as untreated, 0 = no growth, -100 = all killed)
run_conditions: 10 µM unless noted
Compounds without any hit were thinned out: in the full panel of roughly 83,000, 20% have a hit.
Here, each record is paired with measured growth data.
Dear colleague, please return just the value in %, with no unit written.

Examples with answers:
NNC(=O)CNC(=O)Nc1n[nH]c(=S)s1
97.7
COC(=O)/C(CCC=C(C)C)=C1\[C@@H](OC(C)=O)C[C@@]2(C)[C@H]1C[C@@H](O)[C@H]1[C@@]3(C)CC[C@H](NCc4ccccc4)[C@@H](C)[C@@H]3CC[C@@]12C
94.4
O=C(Nc1ccc(Br)cc1F)c1cc(F)ccc1O
-29.2
Cc1ccccc1CNC(=O)C1CN(c2ccc(Cl)cc2)N(c2ccc(Cl)cc2)C1=O (stereo unspecified)
91.8
COc1cc([C@@H]2NC(=O)NC(C)=C2C(=O)Nc2nc(-c3ccc(Cl)cc3)cs2)ccc1O
105

Next item in the queue.
[in] Recall and state the measured growth for COc1ccc(-n2c(C(O)c3ccccc3)n[nH]c2=S)cc1 (stereo unspecified) .
[out] 96.7

====

System: ACHN renal
method: NCI-60 one-dose screen, 48 h (100 = growth as untreated, 0 = no growth, -100 = all killed)
run_conditions: 10 µM unless noted
Description: Growth inhibition of the ACHN human tumor cell line is measured as a screen for anti-cancer activity. Cells are grown in 96 well plates and exposed to the test compound for 48 hours. Compounds are tested at a single concentration, which is 10^-5 M for most compounds. The reported endpoint is percent growth (GI% or GIPRCNT), where numbers from 0 - 100% represent growth inhibition, and numbers from -100% - 0 represent cell death. For example, a value of 40 represents 60% growth inhibition. […]
About 83,000 compounds went through this panel and 20% of them were active in at least one assay; those are over-represented in the sample as a whole. Activity calls are given as the source filed them. The calls were made as follows: active = growth percent below 10; inactive = the rest.
Here, each record is paired with measured growth data.

Examples with answers:
CCCC(c1nnnn1C1CCCCC1)N1CCN(C(=O)c2ccco2)CC1 (configuration not stated)
84.6% (inactive)
O=C(Nc1ccc(C23CC4CC(CC(c5ccccc5)(C4)C2)C3)cc1)c1cccs1
76.9% (inactive)
COc1ccc(/C=C2\N=C(c3ccccc3)N(c3ccc(-c4nc5ccc(C)cc5s4)cc3)C2=O)cc1
80.7% (inactive)
CCCN1C(=O)N(CCC)C2C1NN=c1s/c(=C3\C(=O)N(C(C)C)c4ccccc43)c(=O)n12 (configuration not stated)
23.4% (inactive)
O=C1OC(c2ccccc2)(c2ccccc2)c2ccsc21
97.9% (inactive)
COc1nccc2cc3c(=O)n4c(cc5ccccc54)c(=O)n3c12
96% (inactive)

[in] Recall and state the measured growth for Clc1ccc(Oc2ccc(Nc3ncnc4onc(-c5ccccc5)c34)cc2)c(Cl)c1 .
[out] 105% (inactive)

[in] Recall and state the measured growth for O=Cc1c(OCc2cnnn2CC(=O)Nc2ccc(Cl)cc2)ccc2ccccc12 .
[out] 94.9% (inactive)

[in] Recall and state the measured growth for O=CCCCC(O)C=O (configuration not stated) .
[out] 103% (inactive)
